Target: SIRT2 (Homo sapiens, UniProt Q8IXJ6)
Sequence (Q8IXJ6 whole entry): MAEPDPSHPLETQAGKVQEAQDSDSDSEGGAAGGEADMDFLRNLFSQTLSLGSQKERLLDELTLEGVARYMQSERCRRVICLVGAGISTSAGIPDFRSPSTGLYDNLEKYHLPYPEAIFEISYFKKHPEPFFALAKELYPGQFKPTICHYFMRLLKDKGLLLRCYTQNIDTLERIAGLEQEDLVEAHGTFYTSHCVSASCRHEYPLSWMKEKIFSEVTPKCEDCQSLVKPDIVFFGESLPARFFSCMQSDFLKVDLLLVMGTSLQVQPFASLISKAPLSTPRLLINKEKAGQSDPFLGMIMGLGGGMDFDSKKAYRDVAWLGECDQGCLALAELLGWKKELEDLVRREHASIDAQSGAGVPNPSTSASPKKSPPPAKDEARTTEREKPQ
Assay: Continuous fluorogenic sirtuin inhibition assay, SIRT2 (tBuK peptides, TB)
Assay type: biochemical
Conditions: mean ± SD of two independent experiments; read-out: IC50, SIRT2
pIC50: −log10 of the molar value. Starred links: 1 amine or outer side, 2 acyl side, 3 side chain; linkers in the order of their positions; H or OH if unused. Non-standard residues stand in square brackets, D forms with d. Residues, ends and D or L forms follow the SMILES beside them. X1 = CCCC(=S)NCCCC[C@H](N[*:1])C(=O)[*:2]

molecule: CCCC(=S)NCCCC[C@H](NC(=O)OCc1ccccc1)C(=O)Nc1ccccc1 [TB, reference compound]
pIC50: 5.51
//
molecule: CCCC(=S)NCCCC[C@H](NC(=O)[C@@H](NC(=O)[C@@H](NC(=O)[C@H](CS)NC(=O)[C@@H](N)[C@@H](C)O)[C@@H](C)O)C(C)C)C(=O)N[C@H](C(=O)NCC(N)=O)[C@@H](C)CC [S2P04-tBuK] (H-TCTV[X1]IG-NH2)
pIC50: 7.04

----------
Target: SIRT2 (Homo sapiens)
Assay: Continuous fluorogenic sirtuin inhibition assay, SIRT2 (tBuK peptides, TB)
Assay type: biochemical
Details: inhibitor 0.5 µM; single trials
Protocol: The continuous assay for comparing isoform specificity of S2P04 was performed using the universal fluorogenic sirtuin substrate described by Schuster et al.[41]. […] Initial rates of product formation were determined by a linear regression of the plot of fluorescence intensity vs. time and normalized relative to 0% (max inhibitor) and 100% (no inhibitor) controls. […] The determined IC50 values are provided in Supplementary Table 2, and inhibition curves can be seen in Supplementary Fig. 20.
Starred links: 1 amine or outer side, 2 acyl side, 3 side chain; linkers in the order of their positions; H or OH if unused. Non-standard residues stand in square brackets, D forms with d. Residues, ends and D or L forms follow the SMILES beside them. X1 = CCCC(=S)NCCCC[C@H](N[*:1])C(=O)[*:2]
Outcome: YES for activity at 0.5 µM of at least 10%; NO for anything lower.

molecule: CCCC(=S)NCCCC[C@H](NC(=O)[C@@H](NC(=O)[C@@H](NC(=O)[C@@H](N)CS)[C@@H](C)O)C(C)C)C(=O)N[C@H](C(N)=O)[C@@H](C)CC [S2P04-5-tBuK] (H-CTV[X1]I-NH2)
qualitative-label: NO
--
molecule: CCCC(=S)NCCCC[C@H](NC(=O)OCc1ccccc1)C(=O)Nc1ccccc1 [TB, reference compound]
qualitative-label: YES
--
molecule: CCCC(=S)NCCCC[C@H](NC(=O)[C@H](Cc1ccccc1)NC(=O)[C@@H](NC(=O)[C@@H](N)CS)[C@@H](C)O)C(=O)N[C@H](C(=O)N1CCC[C@H]1C(=O)N[C@H](C(N)=O)[C@@H](C)O)C(C)C [S2P07-tBuK] (H-CTF[X1]VPT-NH2)
qualitative-label: NO
--
molecule: CCCC(=S)NCCCC[C@H](NC(=O)[C@@H](NC(=O)[C@@H](NC(=O)[C@H](CS)NC(=O)[C@@H](N)[C@@H](C)O)[C@@H](C)O)C(C)C)C(=O)N[C@H](C(=O)NCC(N)=O)[C@@H](C)CC [S2P04-tBuK] (H-TCTV[X1]IG-NH2)
qualitative-label: NO
--
molecule: CCCC(=S)NCCCC[C@H](NC(=O)[C@@H](NC(=O)[C@@H](NC(=O)[C@H](CS)NC(C)=O)[C@@H](C)O)C(C)C)C(=O)N[C@H](C(N)=O)[C@@H](C)CC [Ac-S2P04-5-tBu] (Ac-CTV[X1]I-NH2)
qualitative-label: YES
